# target.under.test: PDE10A enzyme (Homo sapiens (Human))
# Sequence (Q9Y233 716-1055): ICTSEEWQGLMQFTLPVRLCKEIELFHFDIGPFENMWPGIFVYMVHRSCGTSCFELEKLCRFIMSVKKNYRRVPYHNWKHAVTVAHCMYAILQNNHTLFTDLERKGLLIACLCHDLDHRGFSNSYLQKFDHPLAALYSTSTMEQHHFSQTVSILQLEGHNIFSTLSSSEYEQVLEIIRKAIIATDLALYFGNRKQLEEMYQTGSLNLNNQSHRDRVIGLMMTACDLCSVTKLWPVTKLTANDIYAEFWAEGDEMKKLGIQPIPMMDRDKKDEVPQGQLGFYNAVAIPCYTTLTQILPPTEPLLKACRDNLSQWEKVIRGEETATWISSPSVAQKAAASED
# protocol.summary: PDE10A inhibition assay
# Format: biochemical
# condition: tritium labeled cAMP 5 nM
pIC50: −log10 of the molar value.
value.type: pIC50

- molecule.smiles: "COc1ccc(C)n2nc(CCc3ccc4cccc(F)c4n3)nc12"
  target.under.test: "PDE10A enzyme (Homo sapiens (Human))"
  measured.value: 6.82
- molecule.smiles: "COc1cc(CCc2nc3c(C)ncc(C)n3n2)nc2ccccc12"
  target.under.test: "PDE10A enzyme (Homo sapiens (Human))"
  measured.value: 7.92
- molecule.smiles: "Cc1ncc(C)n2nc(CCc3ccc4cc(F)cc(F)c4n3)nc12"
  target.under.test: "PDE10A enzyme (Homo sapiens (Human))"
  measured.value: 6.52
- molecule.smiles: "Cc1ncc(C)n2nc(CCc3ccc4ccc(F)cc4n3)nc12"
  target.under.test: "PDE10A enzyme (Homo sapiens (Human))"
  measured.value: 7.82
- molecule.smiles: "Cc1cc(C)n2cc(/C=C/c3ccc4ccccc4n3)nc2n1"
  target.under.test: "PDE10A enzyme (Homo sapiens (Human))"
  measured.value: 6.49
- molecule.smiles: "COc1cc(CCc2nc3c(C)ncc(C)n3n2)nc2cc(F)ccc12"
  target.under.test: "PDE10A enzyme (Homo sapiens (Human))"
  measured.value: 7.59
